Values from PubChem BioAssay AID1745844

Tested on: rodent lifetime carcinogenesis bioassay, tumor incidence TD50
Test: carcinogenic potency in animals, long-term in vivo studies, CPDB compilation (AID 1745844)
Settings: mouse; strain Swiss albino; males; in drinking water; site: kidney; lesion: adenoma; dosed 81 weeks; study length 81 weeks
observation.type: TD50

What reported TD50 corresponds to `CN(C)NC(=O)CCC(=O)O` on rodent lifetime carcinogenesis bioassay, tumor incidence TD50?
10900 mg/kg/day

---

Tested on: rodent lifetime carcinogenesis bioassay, tumor incidence TD50
Test: carcinogenic potency in animals, long-term in vivo studies, CPDB compilation (AID 1745844)
Conditions: rat; strain Fischer 344; males; in feed; site: liver; lesion: hepatocellular carcinoma + neoplastic nodule; dosed 109 weeks; study length 109 weeks
observation.type: TD50 (mg/kg/day)
Form entry: value (mg/kg/day) — number only.

May I ask what TD50 has been recorded for `Nc1ccc2cc3ccc(N)cc3nc2c1` ?
254
